target: Serine acetyltransferase isoform 1 (EhSAT1) (Entamoeba histolytica); experiment: SAT activity assay, acetyl-CoA thioester cleavage at […] nm, […] serine
Sequence (Q9U8X2 1-305): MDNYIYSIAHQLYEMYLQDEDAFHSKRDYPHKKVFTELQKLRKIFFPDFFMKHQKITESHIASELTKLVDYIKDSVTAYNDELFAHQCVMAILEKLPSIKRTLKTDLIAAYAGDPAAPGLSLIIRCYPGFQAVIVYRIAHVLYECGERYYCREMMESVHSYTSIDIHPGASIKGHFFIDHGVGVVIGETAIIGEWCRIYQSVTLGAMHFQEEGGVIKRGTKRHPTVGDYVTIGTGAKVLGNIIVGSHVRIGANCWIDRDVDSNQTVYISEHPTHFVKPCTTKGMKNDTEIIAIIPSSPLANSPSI
pIC50: −log10 of the molar value.
Measurement type: pIC50

1. N[C@@H](CS)C(=O)O ... 5.02
